Test: chemical genetic growth profiling, strain panel (AID 1159580);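 also: tested at 20 µM; growth read once vehicle control cultures reached saturation at 30 °C; lower values mean less growth of the strain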
Conditions: S. cerevisiae deletion strains, growth OD, locus YOR061W, strain CKA2, hits give low values
Out of some 5,500 compounds screened, about 2,000 (36%) were called active. Inconclusive results (about 18%) are left out. This is one part of the list.
Please use Y for normalized growth under 1 and N for everything else, ties included.

Q) Is the reported normalized growth for `CC1(C)C=Cc2c(cc3occ(-c4ccc5c(c4)OCO5)c(=O)c3c2O)O1` strictly below 1?
A) Y

Q) Lab note: confirm whether the reported normalized growth for this compound is below 1, equality not counting. compound: COc1cc(OC)c2c(c1Cl)OC1(C2=O)C(O)=CC(=O)CC1C (stereo not drawn)
A) N

Q) Threshold test, normalized growth < 1: `Cc1nn(Cc2cccc(C(=O)O/N=C(/N)c3ccc(Cl)cc3)c2)c(C)c1Br`
A) Y
